// data source = ChEMBL document CHEMBL1123555

test: Antitumor activity against B16 melanoma cells in mice, activity is expressed as average survival time of treated/control animals x 100.; assay type: functional, Mus musculus
For each record, check the reported T/C: if it is below 200% write 1.0, else write 0.0.

1. COc1ccc(S(=O)(=O)N(CCCl)NS(=O)(=O)c2ccccc2)cc1: 1.0
2. CN(NS(=O)(=O)c1ccccc1)S(=O)(=O)c1ccc(Br)cc1: 1.0
3. CN(NS(C)(=O)=O)S(=O)(=O)c1ccc(Br)cc1: 0.0
4. CN(NS(=O)(=O)c1ccc(Br)cc1)S(C)(=O)=O: 0.0
5. CN(NS(=O)(=O)c1ccc(Cl)cc1)S(C)(=O)=O: 0.0
6. CN(NS(=O)(=O)c1ccc(Cl)cc1)S(=O)(=O)c1ccc(Cl)cc1: 1.0

* * *

Reported Weight change values for a set of compounds
species on record: Mus musculus; assay: Antitumor activity against L1210 leukemia cells in mice calculated as average change in body weight from onset to termination of therapy; format: functional
measurement_name: Weight change (%)

1) Cc1ccc(S(=O)(=O)N(C)NS(=O)(=O)c2ccc(Br)cc2)cc1: 5.6
2) CN(NS(=O)(=O)c1ccc(Cl)cc1)S(C)(=O)=O: -9.4
3) COc1ccc(S(=O)(=O)N(C)NS(=O)(=O)Cc2ccccc2)cc1: 1.5
4) COc1ccc(S(=O)(=O)NN(C)S(=O)(=O)c2ccc(Br)cc2)cc1: 7.8
5) Cc1ccc(S(=O)(=O)N(C)NS(=O)(=O)c2ccccc2)cc1: 2
6) Cc1ccc(S(=O)(=O)NN(C)S(C)(=O)=O)cc1: -12.3
7) COc1ccc(S(=O)(=O)N(CCCl)NS(C)(=O)=O)cc1: -10.9
8) CN(NS(C)(=O)=O)S(=O)(=O)c1ccc(Cl)cc1: 5.3
9) Cc1ccc(S(=O)(=O)N(C)NS(C)(=O)=O)cc1: -7.9
10) CN(NS(=O)(=O)c1ccc2ccccc2c1)S(=O)(=O)c1ccc(Br)cc1: 18.3
11) Cc1ccc(S(=O)(=O)NN(C)S(=O)(=O)c2ccccc2)cc1: 10.7
12) Cc1ccc(S(=O)(=O)NN(C)S(=O)(=O)c2ccc3ccccc3c2)cc1: 8.6
13) COc1ccc(S(=O)(=O)NN(C)S(C)(=O)=O)cc1: -13.7
14) COc1ccc(S(=O)(=O)N(C)NS(=O)(=O)c2ccc(C)cc2)cc1: 9.8
15) CN(NS(=O)(=O)c1ccccc1)S(=O)(=O)c1ccc(Cl)cc1: 6.8
16) Cc1ccc(S(=O)(=O)NN(C)S(=O)(=O)Cc2ccccc2)cc1: 0.3
17) CN(NS(=O)(=O)c1ccc(Cl)cc1)S(=O)(=O)c1ccc(Cl)cc1: 1.3
18) Cc1ccc(S(=O)(=O)NN(C)S(=O)(=O)c2ccc(C)cc2)cc1: 3.7
19) COc1ccc(S(=O)(=O)NN(C)S(=O)(=O)c2ccc(C)cc2)cc1: 7.8
20) COc1ccc(S(=O)(=O)NN(C)S(=O)(=O)c2ccc(Cl)cc2)cc1: -4.3
21) COc1ccc(S(=O)(=O)N(C)NS(=O)(=O)c2ccc(Br)cc2)cc1: 3.4
22) Cc1ccc(S(=O)(=O)N(C)NS(=O)(=O)c2ccc3ccccc3c2)cc1: 9.3
23) CN(NS(=O)(=O)c1ccccc1)S(=O)(=O)Cc1ccccc1: -3.1
24) COc1ccc(S(=O)(=O)N(C)NS(C)(=O)=O)cc1: -6.4
25) CN(NS(=O)(=O)c1ccc2ccccc2c1)S(=O)(=O)c1ccc(Cl)cc1: 9
26) CN(NS(=O)(=O)c1ccc2ccccc2c1)S(=O)(=O)c1ccc2ccccc2c1: -3.3
27) CN(NS(=O)(=O)c1ccc(Cl)cc1)S(=O)(=O)c1ccccc1: 14.6
28) CN(NS(=O)(=O)c1ccccc1)S(=O)(=O)c1ccccc1: -4.8
29) COc1ccc(S(=O)(=O)N(C)NS(=O)(=O)c2ccccc2)cc1: -3.9
30) COc1ccc(S(=O)(=O)N(CCCl)NS(=O)(=O)c2ccccc2)cc1: 4.8
31) Cc1ccc(S(=O)(=O)N(C)NS(=O)(=O)c2ccc(Cl)cc2)cc1: 3.7
32) CCS(=O)(=O)NN(C)S(=O)(=O)c1ccc(C)cc1: -2.6
33) CN(NS(=O)(=O)c1ccccc1)S(=O)(=O)c1ccc2ccccc2c1: 1.8
34) CN(NS(=O)(=O)c1ccc2ccccc2c1)S(=O)(=O)Cc1ccccc1: 10.3
35) Cc1ccc(S(=O)(=O)NN(C)S(=O)(=O)c2ccc(Cl)cc2)cc1: 5.5
36) CN(NS(C)(=O)=O)S(C)(=O)=O: -15.3
37) COc1ccc(S(=O)(=O)NN(C)S(=O)(=O)c2ccccc2)cc1: 4.5
38) CN(NS(=O)(=O)c1ccc(Cl)cc1)S(=O)(=O)Cc1ccccc1: 10.2
39) CN(NS(=O)(=O)c1ccc(Br)cc1)S(=O)(=O)c1ccc(Br)cc1: 1.7
40) CN(NS(=O)(=O)c1ccc(Br)cc1)S(C)(=O)=O: 6.3
41) CN(NS(C)(=O)=O)S(=O)(=O)Cc1ccccc1: 6.7
42) CCS(=O)(=O)NN(C)S(=O)(=O)c1ccc(OC)cc1: -8.7
